# Study System: PARP1 G558E (UniProt P09874 1-1014, G558E)
# Sequence (P09874 whole entry G558E): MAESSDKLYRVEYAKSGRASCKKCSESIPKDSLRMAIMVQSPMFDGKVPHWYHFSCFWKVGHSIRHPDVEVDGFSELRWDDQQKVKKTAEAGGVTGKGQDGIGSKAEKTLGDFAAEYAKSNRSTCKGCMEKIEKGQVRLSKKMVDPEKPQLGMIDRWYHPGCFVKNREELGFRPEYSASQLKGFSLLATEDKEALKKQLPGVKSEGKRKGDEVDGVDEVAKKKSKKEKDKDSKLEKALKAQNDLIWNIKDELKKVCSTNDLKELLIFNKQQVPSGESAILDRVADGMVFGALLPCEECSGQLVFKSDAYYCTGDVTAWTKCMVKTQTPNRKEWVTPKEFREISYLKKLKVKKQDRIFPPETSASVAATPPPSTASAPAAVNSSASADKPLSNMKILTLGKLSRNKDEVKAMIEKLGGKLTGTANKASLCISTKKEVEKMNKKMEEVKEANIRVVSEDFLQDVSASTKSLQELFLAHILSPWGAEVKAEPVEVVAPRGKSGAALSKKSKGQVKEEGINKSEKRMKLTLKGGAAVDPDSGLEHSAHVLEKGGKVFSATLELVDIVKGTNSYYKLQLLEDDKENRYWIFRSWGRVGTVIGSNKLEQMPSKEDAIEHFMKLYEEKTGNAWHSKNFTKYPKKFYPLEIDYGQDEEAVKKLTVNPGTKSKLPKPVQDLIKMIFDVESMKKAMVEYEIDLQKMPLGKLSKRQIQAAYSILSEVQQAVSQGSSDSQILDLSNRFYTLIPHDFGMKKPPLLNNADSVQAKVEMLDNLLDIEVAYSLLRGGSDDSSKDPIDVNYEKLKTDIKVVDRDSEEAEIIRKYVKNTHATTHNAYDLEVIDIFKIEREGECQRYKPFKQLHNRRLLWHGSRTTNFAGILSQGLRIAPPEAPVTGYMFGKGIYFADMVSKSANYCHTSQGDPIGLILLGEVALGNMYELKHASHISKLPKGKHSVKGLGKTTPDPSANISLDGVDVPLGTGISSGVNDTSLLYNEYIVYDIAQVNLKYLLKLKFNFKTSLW
# Assay Remarks: fluorescence polarization
Measurement Name: pKd
Give only the number. pKd is defined as minus log10 of concentration in molar units.

Form field: reported pKd of 18-bp DSB duplex (dsDNA) DNA 1: GGGTTGCGGCCGCTTGGG DNA 2: CCCAAGCGGCCGCAACCC
6.93
